Target: T1, mouse TGF-βRII on MC3T3-E1 cells (mouse osteoblasts) (mouse, UniProt Q62312 24-567); also: test concentration or dose not given here
T1 sequence (looked up): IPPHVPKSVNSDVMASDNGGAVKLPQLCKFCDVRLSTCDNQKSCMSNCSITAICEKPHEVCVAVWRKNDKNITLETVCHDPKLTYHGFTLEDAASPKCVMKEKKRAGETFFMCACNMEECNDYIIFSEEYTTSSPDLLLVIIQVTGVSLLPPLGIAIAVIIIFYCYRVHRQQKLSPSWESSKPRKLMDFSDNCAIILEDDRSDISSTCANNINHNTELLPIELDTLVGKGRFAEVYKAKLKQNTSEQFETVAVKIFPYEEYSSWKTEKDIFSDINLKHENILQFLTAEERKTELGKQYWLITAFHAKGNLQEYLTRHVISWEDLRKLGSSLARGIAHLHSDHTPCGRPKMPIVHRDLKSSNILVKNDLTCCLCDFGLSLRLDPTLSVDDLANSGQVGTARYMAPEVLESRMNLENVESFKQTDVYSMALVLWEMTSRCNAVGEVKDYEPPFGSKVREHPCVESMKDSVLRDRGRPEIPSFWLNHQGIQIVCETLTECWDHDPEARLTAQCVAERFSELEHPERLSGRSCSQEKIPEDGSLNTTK
Test: cell-based or functional assay
measured.parameter: max % inhibition, Average (Mouse 3T3 cell assay, method m2)

- DOM23m-101 (VHH, not shown: small tags and cut ends) VHH: EVQLLESGGGLVQPGGSLRLSCAASGFTFSEYDMAWVRQAPGKGLEWVSRIRSDGVRTYYADSVKGRFTISRDNSKNTLYLQMNSLRAEDTAVYYCAKDRAKNGWFDYWGQGTLVTVSS: 48%
- DOM23m-99 (VHH, not shown: small tags and cut ends) VHH: EVQLLESGGGLVQPGGSLRLSCAASGFTFDRYRMMWVRQAPGKGLEWVSTIDPAGMLTYYADSVKGRFTISRDNSKNTLYLQMNSLRAEDTAVYYCAKRLASRSHFDYWGQGTLVTVSS: 46.5%
- DOM23h-352 (VHH, not shown: small tags and cut ends) VHH: EVQLLESGGGLVQPGGSLRLSCAASGFTFDKYKMAWVRQAPGKGLEWVSLIFPNGVPTYYANSVKGRFTISRDNSKNTLYLQMNSLRAEDTAVYYCAKYSGQGRDFDYWGQGTLVTVSS: 48%
- DOM23m-81 (VHH, not shown: small tags and cut ends) VHH: EVQLLESGGGLVQPGGSLRLSCAASGFTFEPVIMGWVRQAPGKGLEWVSAIEARGGGTYYADSVKGRFTISRDNSKNTLYLQMNSLRAEDTAVYYCAKPGRHLSQDFDYWGQGTLVTVSS: 30.3%

Every entry's value here was drawn from patent US20150361176A1.
